Sequence of the target: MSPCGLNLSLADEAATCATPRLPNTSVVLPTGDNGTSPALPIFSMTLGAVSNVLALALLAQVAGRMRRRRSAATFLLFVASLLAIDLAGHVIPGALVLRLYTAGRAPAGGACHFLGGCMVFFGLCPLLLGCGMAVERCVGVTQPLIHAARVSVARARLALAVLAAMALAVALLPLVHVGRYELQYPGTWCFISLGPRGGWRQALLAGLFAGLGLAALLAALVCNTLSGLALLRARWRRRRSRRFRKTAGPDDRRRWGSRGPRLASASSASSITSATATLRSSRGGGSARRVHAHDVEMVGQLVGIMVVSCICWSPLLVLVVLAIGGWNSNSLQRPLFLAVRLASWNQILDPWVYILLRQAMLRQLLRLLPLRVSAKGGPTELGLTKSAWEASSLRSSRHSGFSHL
pKi: −log10 of the molar value.
measurement.type: pKi

Take a look at these entries with their results.
For CC(C)CN(c1cc(Cl)ccc1OCc1ccc(C(=O)O)cc1)S(=O)(=O)c1ccco1 [Example 18 (125), reference compound] , what is its reported pKi? 8.89

For `Cc1csc(S(=O)(=O)N(CC(C)C)c2ccc(C(F)(F)F)cc2OCc2ccc(/C=C/C(=O)O)cc2)n1` , what is its reported pKi? 8.82

For `Cc1cc(OCc2ccc(C(=O)O)cc2C)c(N(CC(C)C)S(=O)(=O)c2ccccn2)cc1C` , what is its reported pKi? 8.85

For Cc1ccc(N(CC(C)C)S(=O)(=O)c2ccco2)c(OCc2ccc(C(=O)O)cc2)c1 [Example 18 (93), reference compound] , what is its reported pKi? 9.10

For `Cc1csc(S(=O)(=O)N(c2cc(C)c(Cl)cc2OCc2ccc(-c3nnn[nH]3)cc2C)C(C)C)n1` , what is its reported pKi? 8.64

I. CC(C)CN(c1ccc(Cl)cc1OCc1ccc(C(=O)O)cc1)S(=O)(=O)c1ccco1 [Example 18 (121), reference compound]
II. Cc1ccc(OCc2ccc(C(=O)O)cc2)c(N(CC(C)C)S(=O)(=O)c2ccco2)c1 [Example 18 (113), reference compound]
Dear colleague, could you let me know whether I or II has the lower recorded pKi? Thanks. Your answer should be the label attached to the chosen record. II
(II: 8.26, I: 9.00)

A. Cc1ccc(S(=O)(=O)N(CC(C)C)c2cc(C)c(C)cc2OCc2ccc(C(=O)O)cc2C)o1
B. Cc1ccc(S(=O)(=O)N(CC(C)C)c2cc3c(cc2OCc2ccc(/C=C/C(=O)O)cc2)CCC3)o1
Dear colleague, could you let me know whether A or B has the lower recorded pKi? Thanks. Your answer should be the label attached to the chosen record. B
(B: 8.10, A: 8.38)
